Give measured GI50 for each item. Keep answers brief.
Tested on: OVCAR-8
assayMethodText: NCI tumour cell line growth inhibition, 48 h
The source made the active and inactive calls. Rule as the data show it: active = GI50 up to about 1.1 µM and inactive = higher.

Lookup result for Nc1nc[n+](Cc2ccccc2)c2ncn(Cc3ccccc3)c12 ; measured GI50: > 100 µM (inactive)

Lookup result for O=C(Cc1ccccc1)NNc1nc(NNC(=O)c2ccncc2)nc(Nc2ccc([N+](=O)[O-])cc2)n1 ; measured GI50: > 10 µM (inactive)

Lookup result for CC(=O)Oc1cc2c(cc1OC(C)=O)OCC(c1ccc(C)cc1)C2 (stereo unspecified) ; measured GI50: 26.8 µM (inactive)

The following compounds each have a reported value; give each one's GI50.
1. O=C1NC(=S)NC(=O)C1=CC1CC1
2. CCC(=O)C1(c2ccccc2)CCN(C)CC1

Solution:
> 100 µM (inactive)
> 100 µM (inactive)

Lookup result for O=[As](O)(O)c1ccc(NCc2ccccc2)cc1 ; measured GI50: > 100 µM (inactive)

====

Tested on: SR
assayMethodText: NCI tumour cell line growth inhibition, 48 h
Calls of active or inactive are those of the source. Rule as the data show it: active = GI50 up to about 1.1 µM and inactive = higher.
A correct response names exactly one class from T (active), F (inactive)

Exercise: What classification did C[N+](C)(C)CC(=O)N/N=C(/Cc1nc2ccc(Cl)cc2nc1O)C1=NS(=O)(=O)c2cc(S(N)(=O)=O)c(Cl)cc2N1 end up with in this test?
Solution: F

Exercise: What classification did C(=N\c1cc2cc(Sc3ccccc3)ccc2[nH]1)/c1ccccc1 end up with in this test?
Solution: F

Exercise: What classification did O=C(Nc1nnc(S)[nH]1)C(=O)C1C(=O)Nc2ccccc2[S+]1[O-] (stereo not given) end up with in this test?
Solution: F

Exercise: What classification did O=C(CCSC1=NCCCN1)c1ccc(F)cc1 end up with in this test?
Solution: F

Exercise: What classification did N#CCCN(CCC#N)c1ccc(/C=C(/NC(=O)c2cc([N+](=O)[O-])ccc2Cl)C(=O)N=[N+]=[N-])cc1 end up with in this test?
Solution: F

Exercise: What classification did COc1cc(C2c3[nH]c4ccccc4c3C[C@H]3COC(=O)N23)cc(OC)c1OC (stereo not given in full) end up with in this test?
Solution: T

Exercise: What classification did O=c1[nH]c2ccc(CC(=S)N3CCCCC3)cc2s1 end up with in this test?
Solution: F

Exercise: What classification did CCCCOCn1c(=O)[nH]c(=O)c2cc(Br)ccc21 end up with in this test?
Solution: F

Exercise: What classification did N#CC(C(=O)/C(=N\NC(N)=O)C(C#N)c1ccccc1)c1ccccc1 (stereo not given) end up with in this test?
Solution: F

Exercise: What classification did O=C(Nc1cccs1)c1c(O)[nH]c(=S)[nH]c1=O end up with in this test?
Solution: F

====

System: PC-3
assayMethodText: NCI tumour cell line growth inhibition, 48 h
Calls of active or inactive are those of the source. Cut-off read from the data, not from the text of the source: active = GI50 up to about 1.1 µM and inactive = higher.
Give measured GI50 for each item. Keep answers brief.

Consider the reported GI50 for these compounds:
Lookup result for C=CCN(C(=O)CNC(=O)C(F)(F)F)c1cc(OCc2ccccc2)c2c(c1)c(C)cn2S(=O)(=O)c1ccccc1 ; measured GI50: 5.96 µM (inactive)

Lookup result for NNC(=O)c1c(Cl)c(Cl)c(Cl)c(Cl)c1-c1nc2ccccc2[nH]1 ; measured GI50: 16.6 µM (inactive)

Lookup result for O=C(COC(c1ccc(F)cc1)c1ccc(F)cc1)N1CCN(CCCc2ccccc2)CC1 ; measured GI50: 3.37 µM (inactive)

Lookup result for O=c1c2cccnc2[nH]c2ccc3[nH]ncc3c12 ; measured GI50: > 10 µM (inactive)

The following compounds each have a reported value; give each one's GI50.
1. COc1cc(-c2cc(=O)c3cc4c(=O)cc(-c5cc(OC)c(OC)c(OC)c5)oc4cc3o2)cc(OC)c1OC
2. N#Cc1c(O)c(/N=N/c2ccc(Cl)cc2)c(=O)n2c1[nH]c1ccccc12
3. O=C1CC2C=CC(O)C(C1)C2 (stereo not given)
4. CN(C)C(=O)C(F)(F)C(c1ccccc1)C1C(=O)N(C)C(=O)N(C)C1=O (stereo not given)
5. N/C(=N\c1ccccc1)c1ccccc1N
6. CC(=O)O[C@@H]1[C@H](C(C)C)[C@@H](OC(C)=O)C/C(C)=C/CC[C@]2(C)O[C@@H]12

Solution:
1: > 100 µM (inactive); 2: 36.2 µM (inactive); 3: > 100 µM (inactive); 4: > 100 µM (inactive); 5: > 100 µM (inactive); 6: > 100 µM (inactive)
